Biological target: Delta-type opioid receptor (Homo sapiens, UniProt P41143)
Sequence (P41143 whole entry): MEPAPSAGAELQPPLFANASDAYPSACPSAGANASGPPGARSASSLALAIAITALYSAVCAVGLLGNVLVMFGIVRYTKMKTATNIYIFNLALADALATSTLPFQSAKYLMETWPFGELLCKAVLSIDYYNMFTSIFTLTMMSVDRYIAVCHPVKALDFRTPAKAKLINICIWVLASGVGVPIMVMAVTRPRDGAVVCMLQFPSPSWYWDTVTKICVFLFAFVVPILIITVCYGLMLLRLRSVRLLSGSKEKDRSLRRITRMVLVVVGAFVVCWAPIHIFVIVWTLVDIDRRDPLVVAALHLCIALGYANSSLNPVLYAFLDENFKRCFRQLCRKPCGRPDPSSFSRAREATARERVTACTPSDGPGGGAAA
Assay: Displacement of [3H]-Naltrindole from DOR (unknown origin)

COMPOUND: CN1CCC2(c3cccc(O)c3)Cc3nc4ccccc4cc3CC2C1 (racemic)
UNITS TEXT: nM
EC50: 13.1

====

Target: Mas-related G-protein coupled receptor member X2 (Homo sapiens, UniProt Q96LB1)
Sequence (Q96LB1 whole entry): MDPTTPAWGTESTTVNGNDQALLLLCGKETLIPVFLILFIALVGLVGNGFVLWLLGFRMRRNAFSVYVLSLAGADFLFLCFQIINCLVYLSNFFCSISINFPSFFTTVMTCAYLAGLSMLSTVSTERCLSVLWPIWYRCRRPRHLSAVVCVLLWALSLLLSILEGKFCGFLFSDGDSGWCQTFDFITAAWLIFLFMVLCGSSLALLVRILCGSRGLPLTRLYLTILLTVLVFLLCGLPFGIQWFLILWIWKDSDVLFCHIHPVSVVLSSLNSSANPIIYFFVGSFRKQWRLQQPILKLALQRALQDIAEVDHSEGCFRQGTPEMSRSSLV
Experiment: Agonist activity at MRGPRX2 (unknown origin) expressed in HTLA cells assessed as induction of beta-arrestin 2 recruitment incubated for 18 to 24 hrs by PRESTO-Tango assay
Format: functional, cell-based
Conditions: read-out: pEC50 (converted)
Where a SMILES comes first, the peptide text is derived from it.

COMPOUND: CC[C@H](C)[C@H](N)C(=O)N[C@@H](CC(N)=O)C(=O)N[C@@H](CC(C)C)C(=O)N[C@@H](CCCCN)C(=O)N[C@@H](C)C(=O)N[C@@H](CC(C)C)C(=O)N[C@@H](C)C(=O)N[C@@H](C)C(=O)N[C@@H](CC(C)C)C(=O)N[C@@H](C)C(=O)N[C@@H](CCCCN)C(=O)N[C@@H](CCCCN)C(=O)N[C@H](C(=O)N[C@@H](CC(C)C)C(N)=O)[C@@H](C)CC
SIGN QUALIFIER: >
EC50 / µM: 31.6
--
COMPOUND: CN1CC[C@@]23CCCC[C@@H]2[C@@H]1Cc1ccc(O)cc13
SIGN QUALIFIER: =
EC50 / µM: 4.17
--
COMPOUND: CN1CCC2(c3cccc(O)c3)Cc3nc4ccccc4cc3CC2C1 (racemic)
SIGN QUALIFIER: =
EC50 / µM: 1.82
--
COMPOUND: CN1CC[C@]23c4c5ccc(O)c4O[C@H]2[C@@H](O)C=C[C@H]3[C@H]1C5
SIGN QUALIFIER: =
EC50 / µM: 6.17
--
COMPOUND: C[C@@H]1C[C@H]2Cc3ncc(-c4ccc5c(n4)C[C@@H]4C[C@@H](C)C[C@]56NCCC[C@H]46)cc3[C@]3(C1)NCCC[C@H]23
SIGN QUALIFIER: =
EC50 / µM: 0.692
--
COMPOUND: CC[C@H](C)[C@H](NC(=O)[C@H](CCCNC(=N)N)NC(=O)[C@H](CCCNC(=N)N)NC(=O)[C@H](CC(C)C)NC(=O)[C@H](Cc1ccccc1)NC(=O)CNC(=O)CNC(=O)[C@@H](N)Cc1ccc(O)cc1)C(=O)N[C@@H](CCCNC(=N)N)C(=O)N1CCC[C@H]1C(=O)N[C@@H](CCCCN)C(=O)N[C@@H](CC(C)C)C(=O)N[C@@H](CCCCN)C(=O)O
SIGN QUALIFIER: =
EC50 / µM: 30.2
--
COMPOUND: C[C@@H](O)[C@@H]1NC(=O)[C@H](CCCCN)NC(=O)[C@H](Cc2c[nH]c3ccccc23)NC(=O)[C@H](Cc2ccccc2)NC(=O)[C@H](Cc2ccccc2)NC(=O)[C@H](CC(N)=O)NC(=O)[C@H](CCCCN)NC(=O)[C@@H](NC(=O)[C@@H]2CCCN2)CSSC[C@@H](C(=O)N[C@@H](CCCCN)C(=O)O)NC(=O)[C@H](CO)NC(=O)[C@H](CO)NC(=O)[C@H](Cc2ccccc2)NC1=O (HELM PEPTIDE1{P.C.K.N.F.F.W.K.T.F.S.S.C.K}$PEPTIDE1,PEPTIDE1,2:R3-13:R3$$$V2.0)
SIGN QUALIFIER: =
EC50 / µM: 0.145
